Origin of the recorded values: the DeepSol protein solubility set

Assay: soluble on expression in E. coli; label from the status in PepcDB or PDB records
readout: soluble on expression in E. coli

Guide cases for soluble on expression in E. coli, answers given:
MIRVACVGITVMDRIYYVEGLPTESGKYVARNYTEVGGGPAATAAVAAARLGAQVDFIGRVGDDDAGNSLLAELESWGVNTRYTKRYNQAKSSQSAIMVDTKGERIIINYPSPDLLPDAEWLEEIDFSQWDVVLADVRWHDGAKKAFTLARQAGVMTVLDGDITPQDISELVALSDHAAFSEPGLARLTGVKEMASALKQAQTLTNGHVYVTQGSAGCDWLENGGRQHQPAFKVDVVDTTGAGDVFHGALAVALATSGDLAESVRFASGVAALKCTRPGGRAGIPDCDQTRSFLSLFV
not soluble
MKIYCCLNTVGFFMDGCGVIPPDSKEITAEHWQSLLKSQAEGGVIDFSVFPPSIKEVIRTHDDEVADANFQKQMLISDATDFINSRQWQGKAALGRLKEDELKQYNLWLDYLEALELVDTSSAPDIEWPTPPAVQARLEHHHHHH
soluble
LAQRAGILCREFAIGFGPKIFSFKKNETVYTIRLLPVGGFVRMAGEDPEMIEVKPGYTVGLLFNKEDQVEKVIINQKEKYPDALVIEVETADLEHDMKITGYEQGKEDELSSFTVSETSFFIVDGEEVQIAPYNRQFGSKPVWQRIKA
not soluble
MTSAPMSNPSSTSSVVTAAMLAIGDELLSGRTKDKNIGHLADVLTMSGIDLKEVRIVADEEESIVEALNALRSRYDYVFTSGGIGPTHDDITADAISAAFGLPCEHDAEALRLLGDMYRVREMEFTEARKRMARMPKGAAHIANPVSVAPGFVIGNVYVMAGVPQVFQAMLDNVMPTLRTGAKVMSQAVRSPYGEGDIGTPLTAIQKAHPETSIGSYPKYDGQRFSTEIVVRARDAGLLKAATEAVAAMIEAIGQEKQLAASKGDATA
not soluble
MAHHHHHHMSVPLRRTVLHSLHLSRKARMGPFAGYDMPIHYQPGVVQEHLHTRQAAGLFDVSHVGFFEVWGADRHKFFEWVTPSGVTELQDGQSALTLFMNESGGVKDDCIVSKYSDHLLAVINAGCKGKIITHLKDRLAEFKGDATLVELDRAMVSLQGPKAASVMAPFVEELDRVKFMWGRRSVCVKGIDITLTRCSYSGEDGFDIIVPIQDAVQFVELLLQNPDVQLAGLGARDSLRTEAGLCLYSHELSEEVNPVAARLMWCIPKRRMAEGGFIGHERLQTFVQRAKELVPRLRMGILSVARGPVARTGMPILVGDVVVGEVTSGVPSPTLSRNIAIGYIDRAKARAGETVELEVRGKRLPGEVTLPRFVPQRYYKG
not soluble
MVLSIERKRAIVQYVKSRKIATVSELAKHFEVHEATIRRDLTSLEKDKKLKRTHGGVMIEEKVVSEPNWKKRSEVRYEEKQRIATLAATMVKDGDTIILDAGTTTGHIATALKDRSKLTVITNDINVASIMRFSPSKVIVTGGVIYPETFILNGMITSGTLQSIHVHKAFVTTPALDIDKGLMHYDEYLIPAKQQMLHSADEVILVTDHTKFGRISLYKYAALDEISSIITGKEIDPVLKEQFEEKGMQIYTTLEHHHHHH
soluble
MSLDQAIRRNPNVPVVVRGWLHKQDSSGMRLWKRRWFVLADYCLFYYKDSREEAVLGSIPLPSYVISPVAPEDRISRKYSFKAVHTGMRALIYNSSTAGSQAEQSGMRTYYFSADTQEDMNAWVRAMNQAAQVLSRSSLKRDMEKVERQAVPQANHTEGHHHHHH
soluble
APPSSFSAAKQQAVKIYQDHPISFYCGCDIEWQGKKGIPNLETCGYQVRKQQTRASRIEWEAVVPAWQFGHHRQCWQKGGRKNCSKNDQQFRLMEADLHNLTPAIGEVNGDRSNFNFSQWNGVDGVSYGRCEMQVNFKQRKVMPPDRARGSIARTYLYMSQEYGFQLSKQQQQLMQAWNKSYPVDEWECTRDDRIAKIQGNHNPFVQQSCQTQ
soluble
MSLGIKVVLLEKAHEIGEIGAGIQLGPNAFSALDSLGVGEVARQRAVFTDHITMMDAVNAEEVVCIETGQAFRDHFGGPYAVIHRVDIHASVWEAVLTHPDVEYHTSTNVVDIRETEDDVTVFDDRGNSWTGDILIGCDGVKSVVRQSLLGDAPRVTGHVVYRAVIDRADMPEDLRINAPVLWAGPHCHLVHYPLRGGKQYNLVVTFHSRQQEEWGVKDGSKEEVLSYFEGIHPRPRQMLDKPTSWRRWSTADREPVAKWGTKRITLVGDSAHPVAQYMAQGACMALEDAVTLGKALAQCEGDAAQAFALYESVRIPRTARIVWSTREMGRVYHAAGVERQVRNLLWKGKSQAEFYRGMEWLYGWKEDNCLQPREGHHHHHH
not soluble
MGSDKIHHHHHHMEKLNFGIPEWAFEFHGHKCPYMPMGYRAGSYALKIAGLEKEKDHRTYLLSEMSPEDMNGCFNDGAQAATGCTYGKGLFSLLGYGKLALILYRPGRKAIRVHVRNSFMDELSTRASDFFRYRKQGYEPSEIPAGAIDPVLEWISSLEDEEIFEYREIDGFTFEPVKKNGAKVRCDVCGEYTYEADAKLLNGKPVCKPDYYGKK
not soluble

# ---- query sequence ----
soluble on expression in E. coli for VQQTERAVMLRFGRVVESDVKPGLHFKIPYVNQVRKFDARLLTLDAPTQRFLTLEKKAVMVDAYAKWRVADAERFYTATSGLKQIADERLSRRLEAGLRDQFGKRTLHEVVSGERDALMGDITASLNRMAQKELGIEVIDVRVKAIDLPKEVNRSVFERMSTEREREAREHRAKGRELAEGIRADADRQRRVIVAEAYRESEETRGDGDSKAAAIYAKAYNQDPEFYSFYRSLKAYRESFAEKRDVLVLDPSSEFFRY is not soluble
